- system.tested: T1, human CD73 on cells (human, UniProt P21589 27-549)
- T1 sequence: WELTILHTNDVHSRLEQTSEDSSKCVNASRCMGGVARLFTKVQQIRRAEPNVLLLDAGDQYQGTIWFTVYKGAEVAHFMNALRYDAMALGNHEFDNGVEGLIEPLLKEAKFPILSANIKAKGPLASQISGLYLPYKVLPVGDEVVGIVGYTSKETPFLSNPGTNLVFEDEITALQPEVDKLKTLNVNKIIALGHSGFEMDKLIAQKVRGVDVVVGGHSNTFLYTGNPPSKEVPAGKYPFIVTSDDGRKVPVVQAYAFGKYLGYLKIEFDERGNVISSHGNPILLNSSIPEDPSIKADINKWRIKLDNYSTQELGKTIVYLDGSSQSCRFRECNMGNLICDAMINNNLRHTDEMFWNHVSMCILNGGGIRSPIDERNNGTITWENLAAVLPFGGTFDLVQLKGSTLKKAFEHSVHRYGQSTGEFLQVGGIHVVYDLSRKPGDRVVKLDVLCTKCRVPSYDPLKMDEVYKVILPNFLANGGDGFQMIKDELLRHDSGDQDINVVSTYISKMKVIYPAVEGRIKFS
- assay.overview: cell-based or functional assay
observation.type: Ymax, high-content internalization assay (percent of 100 nM 11F11) (%)
Enter your answer as a number in %; do not include the unit.

Examples with answers:
{"binder": "10D2 (antibody, human IgG4, kappa, V domains shown, also called 10D2-2) VH: QVQLVESGGGVVQPGRSLRLSCAASGFTFSNYGLHWVRQAPGKGLEWVAVIRYDGSNKYYADSVKGRFTISRDNSKNTLYLQMSSLRAEDTAVYYCARGGSSWYPDGLDVWGQGTTVTVSS VL: DIQMTQSPSSLSASVGDRVTITCRASQGISSWLAWYQQKPEKAPKSLIYAASSLQSGVPSRFSGSGSGTDFTLTISSLQPEDFATYYCQQYNSYPLTFGGGTKVEIKR", "unit.abbrev": "%", "numeric.value": 29}
{"binder": "7A11 (antibody, human IgG1, kappa, V domains shown, IgG1za; also called 7A11-1) VH: EVQLVESGGGLVQTGRSLRLSCAASGFTFDDYAMHWVRQAPGKGLEWVSDISWNSDIIGYADSVKGRFTISRDNAKNSLYLQMNSLRAEDTALYYCAKDIYGSGSSFFDYWGQGILVTVSS VL: DIQMTQSPSSLSASVGDRVTITCRASQYISSWLAWYQQKPEKAPKSLIYAASSLQSGVPSRFSGSGSGTDFTLTISSLQPEDFATYYCQQYHSYPPTFGQGTRLEIKR", "unit.abbrev": "%", "numeric.value": 50}
{"binder": "24H2 (antibody, human IgG4, kappa, V domains shown, also called 24H2-1) VH: QVQLVESGGGVVQPGRSLRLSCAASGFTFSNYGMHWVRQAPGKGLEWVAVIWYDGGNKYYADSVKGRFTISRDNSKNTLFLQMNSLRAEDTAVYYCARGGSSWYPDAFDIWGQGTMVTVSS VL: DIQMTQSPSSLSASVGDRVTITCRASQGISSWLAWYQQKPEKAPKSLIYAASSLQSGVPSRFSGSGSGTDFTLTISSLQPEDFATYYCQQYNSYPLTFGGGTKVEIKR", "unit.abbrev": "%", "numeric.value": 51}

Challenge: Could you share which Ymax, high-content internalization assay (percent of 100 nM 11F11) value was measured for 11F11 (antibody, human IgG2, kappa, V domains shown, Human IgG2; also called 11F11-2) VH: QVQLVESGGGVVQPGRSLRLSCATSGFTFSNYGMHWVRQAPGKGLEWVAVILYDGSNKYYPDSVKGRFTISRDNSKNTLYLQMNSLRAEDTAVYYCARGGSSWYPDSFDIWGQGTMVTVSS VL: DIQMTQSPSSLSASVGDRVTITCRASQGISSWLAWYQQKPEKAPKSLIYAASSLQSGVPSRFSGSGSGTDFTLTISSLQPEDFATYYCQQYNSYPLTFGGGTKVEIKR ?
Response given: 98
